system: Receptor-type tyrosine-protein kinase FLT3 (Homo sapiens), P36888 [D835Y]; conditions: at 0.1 µM
Listed here are molecules together with their documented inhibition.

{"molecule": "CCCN(CCS(C)(=O)=O)Cc1ccc(-c2ccc3ncnc(Nc4ccc(OCc5cccc(F)c5)c(Cl)c4)c3c2)o1", "result_units": "%", "inhibition": 1.48}
{"molecule": "CCN(CC)S(=O)(=O)c1ccc(OC)c(Nc2ncc(-c3ccccc3)o2)c1", "result_units": "%", "inhibition": 17.9}
{"molecule": "CC(=O)Nc1cccc(C#Cc2cncnc2Nc2ccc(OCc3cccc(F)c3)c(Cl)c2)c1", "result_units": "%", "inhibition": -3.37}

----------
biological target: Protein-tyrosine kinase 2-beta (Homo sapiens) (UniProt Q14289); conditions: at 1 µM;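 also: values are the mean percent inhibition of PYK2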
Sequence (Q14289 whole entry, looked up): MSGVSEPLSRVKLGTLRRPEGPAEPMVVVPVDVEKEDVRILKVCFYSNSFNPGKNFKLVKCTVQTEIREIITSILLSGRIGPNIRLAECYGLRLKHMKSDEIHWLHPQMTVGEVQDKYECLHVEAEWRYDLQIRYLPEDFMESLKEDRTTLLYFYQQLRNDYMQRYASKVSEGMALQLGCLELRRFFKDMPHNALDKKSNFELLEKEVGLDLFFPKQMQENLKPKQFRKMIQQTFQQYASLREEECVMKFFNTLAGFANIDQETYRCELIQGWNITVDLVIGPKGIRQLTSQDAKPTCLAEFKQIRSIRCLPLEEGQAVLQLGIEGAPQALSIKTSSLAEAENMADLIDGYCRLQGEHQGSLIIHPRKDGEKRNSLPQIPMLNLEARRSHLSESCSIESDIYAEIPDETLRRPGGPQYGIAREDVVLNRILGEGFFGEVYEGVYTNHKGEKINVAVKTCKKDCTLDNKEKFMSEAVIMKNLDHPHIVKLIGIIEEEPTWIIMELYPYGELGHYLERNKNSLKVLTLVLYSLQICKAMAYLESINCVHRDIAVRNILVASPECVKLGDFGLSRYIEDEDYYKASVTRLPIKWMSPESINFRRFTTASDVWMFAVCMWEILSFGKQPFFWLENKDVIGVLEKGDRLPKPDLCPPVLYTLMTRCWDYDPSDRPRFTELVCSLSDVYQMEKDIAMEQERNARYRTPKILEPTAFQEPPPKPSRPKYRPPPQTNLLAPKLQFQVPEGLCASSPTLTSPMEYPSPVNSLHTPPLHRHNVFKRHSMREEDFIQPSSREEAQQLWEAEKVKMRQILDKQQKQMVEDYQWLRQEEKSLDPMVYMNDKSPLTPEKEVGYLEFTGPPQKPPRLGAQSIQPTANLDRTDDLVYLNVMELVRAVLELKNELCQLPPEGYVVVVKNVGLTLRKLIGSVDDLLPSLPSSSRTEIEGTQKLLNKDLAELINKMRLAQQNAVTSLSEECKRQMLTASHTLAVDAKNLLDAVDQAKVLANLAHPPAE

{"molecule": "CCOc1ccc2c(-c3ccnc(Nc4cccc(C(F)(F)F)c4)n3)cnn2n1", "inhibition": "3.33%"}
{"molecule": "NS(=O)(=O)c1ccc(N/N=C2\\C(=O)Nc3ccc4ncccc4c32)cc1", "inhibition": "43.2%"}
{"molecule": "CCN1CCC(CC(=O)Nc2n[nH]c3nnc(-c4cccc(F)c4F)cc23)CC1", "inhibition": "2.8%"}
{"molecule": "CCn1c(-c2nonc2N)nc2cnc(Oc3cccc(NC(=O)c4ccc(N(C)C)cc4)c3)cc21", "inhibition": "3.58%"}
{"molecule": "FC(F)(F)c1cccc(-c2nn3ncccc3c2-c2ccnc(Nc3ccc4c(c3)OCCO4)n2)c1", "inhibition": "13.1%"}
{"molecule": "CC(=O)Nc1cccc(C#Cc2cncnc2Nc2ccc(OCc3cccc(F)c3)c(Cl)c2)c1", "inhibition": "4.14%"}
{"molecule": "COc1cc(Nc2nccc(Nc3ccc4c(C)n[nH]c4c3)n2)cc(OC)c1OC", "inhibition": "84.3%"}

----------
Listed here are compounds together with their documented inhibition.
biological target: Casein kinase II subunit alpha (Homo sapiens) (UniProt P68400); details: at 0.1 µM
Sequence (P68400 whole entry, looked up): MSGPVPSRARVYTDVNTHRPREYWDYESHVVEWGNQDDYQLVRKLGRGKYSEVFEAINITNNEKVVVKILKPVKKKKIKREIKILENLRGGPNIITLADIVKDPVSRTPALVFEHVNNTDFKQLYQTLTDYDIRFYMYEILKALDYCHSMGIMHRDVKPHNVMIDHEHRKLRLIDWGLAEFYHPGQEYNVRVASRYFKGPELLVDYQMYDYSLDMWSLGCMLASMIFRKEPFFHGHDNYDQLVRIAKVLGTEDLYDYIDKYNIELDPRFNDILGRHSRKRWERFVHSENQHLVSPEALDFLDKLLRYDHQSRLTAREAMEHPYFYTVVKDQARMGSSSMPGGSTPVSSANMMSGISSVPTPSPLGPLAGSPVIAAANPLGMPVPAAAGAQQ
Description: GSK_PKIS: CK2 mean inhibition at 0.1 uM [Nanosyn]

{"molecule": "CNC(=O)c1cncc(/C=C/c2ccccc2Cl)c1", "inhibition / %": 0.75}
{"molecule": "NC(=O)c1sc(-n2cnc3ccc(C(F)(F)F)cc32)cc1OCc1ccccc1Br", "inhibition / %": 3.45}
{"molecule": "COc1ccc(-c2oc3ncnc(N)c3c2-c2ccc(NC(=O)Nc3cc(C(F)(F)F)ccc3F)cc2)cc1", "inhibition / %": 6.63}
{"molecule": "CS(=O)(=O)CCNCc1coc(-c2ccc3ncnc(Nc4ccc(OCc5ccccc5)cc4)c3c2)c1", "inhibition / %": 1.05}
{"molecule": "CCn1c(-c2nonc2N)nc2c(C#CC(C)(C)O)nc(OC[C@H](N)c3ccccc3)cc21", "inhibition / %": 1.82}
{"molecule": "c1cc(-c2cnn3nc(N4CCOCC4)ccc23)nc(NC2CC2)n1", "inhibition / %": 1.46}
{"molecule": "COc1ccc(-c2cc(-c3c[nH]nc3-c3ccccn3)ccn2)cc1", "inhibition / %": 5.84}
{"molecule": "CNC(=O)c1cccc(C#Cc2cncnc2Nc2ccc(OCc3cccc(F)c3)c(Cl)c2)c1", "inhibition / %": 2.99}
{"molecule": "CCOc1ccc2c(-c3ccnc(Nc4cccc(C(F)(F)F)c4)n3)cnn2n1", "inhibition / %": 5.72}
{"molecule": "NS(=O)(=O)c1ccc(Nc2ncc(-c3ccccc3)o2)cc1", "inhibition / %": 3.56}

The reported numbers originate from ChEMBL document CHEMBL1961873.
